# method: Pharmacokinetic interaction study of DSV and TAM/TOH after oral single or co-administration to Wistar rats (UPLC-MS/MS of plasma, NCA)
# Assay type: in vivo
# condition summary: male, Wistar, rat, plasma, po, oral co-administration of DSV 50 mg/kg and TAM 10 mg/kg (TOH as metabolite of TAM); mean ± SD, n = 5; read-out: t½ (converted)
property label: half-life

For orientation, consider the following solved cases.
{"columns": ["compound", "half-life"],
 "data": [
  ["COc1c(-c2ccc3cc(NS(C)(=O)=O)ccc3c2)cc(-n2ccc(=O)[nH]c2=O)cc1C(C)(C)C [DSV, Dasabuvir]", "19.7 h"],
  ["CC/C(=C(\\c1ccc(O)cc1)c1ccc(OCCN(C)C)cc1)c1ccccc1 [TOH, 4-hydroxy tamoxifen]", "19.7 h"]
]}

// next item, half-life requested
-- ask I have this compound here, CC/C(=C(\c1ccccc1)c1ccc(OCCN(C)C)cc1)c1ccccc1 [TAM, Tamoxifen] , and I need its recorded half-life.
-- reply 17.7 h
